Attribution: PubChem BioAssay (Tox21)

Assay text: qHTS RealTime-Glo MT Cell Viability Assay in HepG2 cells - 8 hour (AID 1224873); note: nearly all actives have a fitted effect of over 55% in size
Assay conditions: RealTime-Glo luminescence; series mostly up to 76.8 µM
Inconclusive results are not listed. Active and inactive are the calls of the source. Calls come from the whole dose curve; as a rule, active = well fitted cell-killing curve with a large enough effect in the repeat runs; inconclusive = weak or mixed curves; inactive = flat fitted curve, though single readings scatter.
Pick one: class 1 = active, class 0 = inactive

Answered examples (4):
• CCC1COC(Cn2cncn2)(c2ccc(Cl)cc2Cl)O1 (stereo unspecified) = class 0
• COC(=O)C(C)N(C(=O)c1ccco1)c1c(C)cccc1C (stereo unspecified) = class 0
• CCOP(=O)(OCC)Oc1nc(Cl)c(Cl)cc1Cl = class 0
• C[N+]1(C)[C@@H]2CC[C@H]1CC(OC(=O)C(CO)c1ccccc1)C2 (stereo partly specified) = class 0

Here is another compound to look at.
For "CCC[CH2][Sn]([CH2]CCC)([O]C(C)=O)[O]C(C)=O" , which call appears in the assay record?
class 0

---

Experimental system: Cytochrome P450 3A4 (Homo sapiens)
Assay text: Cytochrome P450 Family 3 Subfamily A Member 4 (CYP3A4) small molecule antagonists: luciferase reporter qHTS assay (AID 1671201); note: nearly all actives have a fitted effect of over 50% in size
Assay conditions: P450-Glo CYP3A4 enzyme, luciferin luminescence, 1 h; series mostly up to 115 µM
Inconclusive results are not listed. Active and inactive are the calls of the source. Calls follow the shape of the dose curve; as a rule, active = well fitted inhibition curve with a large enough effect in the repeat runs; inconclusive = weak or mixed curves; inactive = no such curve, though single readings can be large or run the other way.
Pick one: TRUE for active, FALSE for inactive

Answered examples (2):
• Cc1cc(C2CC2)nc(Nc2ccccc2)n1 = FALSE
• COC(=O)c1ccccc1S(=O)(=O)NC(=O)Nc1nc(C)nc(OC)n1 = FALSE

Here is another compound to look at.
For "CC[C@H](C)[C@H]1O[C@]2(C=C[C@@H]1C)C[C@@H]1C[C@@H](C/C=C(\C)[C@@H](O[C@H]3C[C@H](OC)[C@@H](O[C@H]4C[C@H](OC)[C@@H](NC)[C@H](C)O4)[C@H](C)O3)[C@@H](C)/C=C/C=C3\CO[C@@H]4[C@H](O)C(C)=C[C@@H](C(=O)O1)[C@]34O)O2" , which call appears in the assay record?
TRUE

---

Assay text: A CellTox Green Cytotoxicity Assay to monitor cytotoxicity in HepG2 cells - 32 hour (AID 1224883); note: nearly all actives have a fitted effect of over 50% in size
Assay conditions: CellTox Green fluorescence; series mostly up to 76.8 µM
Records with an inconclusive call do not appear. The source made the active and inactive calls. Calls follow the shape of the dose curve; as a rule, active = well fitted activation curve with a large enough effect in the repeat runs; inconclusive = weak or mixed curves; inactive = flat fitted curve, though single readings scatter.
Pick one: class 1 (active), class 0 (inactive)

• CCC(OC(C)=O)C(CC(C)NC)(c1ccccc1)c1ccccc1 (configuration not stated) = class 1

For CC[N+]1(CC)CCC(OC(=O)C(O)(c2ccccc2)c2ccccc2)C1 (configuration not stated) , which call appears in the assay record?
class 0

For "S=C=Nc1ccccc1" , which call appears in the assay record?
class 0

---

Assay text: qHTS assay to identify small molecule antagonists of the estrogen receptor alpha (ER-alpha) signaling pathway - cell viability counter screen (AID 743074);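 note: HEK293 cells carrying ER-alpha-UAS-bla reporter stimulated with 17beta-estradiol; nearly all actives have a fitted effect of over 45% in size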
Assay conditions: ERalpha-bla HEK293 viability, CellTiter-Glo luminescence, 18 h; series mostly up to 69.4 µM
Records with an inconclusive call do not appear. The source made the active and inactive calls. Calls follow the shape of the full dose curve.
Pick one: active, inactive

* O=C(Nc1ccc(F)cc1F)c1cccnc1Oc1cccc(C(F)(F)F)c1 | inactive

For "CNC(=O)CSP(=O)(OC)OC" , which call appears in the assay record?
inactive

For "Cc1ccc(C)c2ccccc12" , which call appears in the assay record?
inactive

For "CC(=O)[O][Pb]([c]1ccccc1)([c]1ccccc1)[c]1ccccc1" , which call appears in the assay record?
active

For "CNC(=O)Oc1cc(C)cc(C(C)C)c1" , which call appears in the assay record?
inactive

For "COCCC#N" , which call appears in the assay record?
inactive

For "CNC(=O)/C=C(\C)OP(=O)(OC)OC" , which call appears in the assay record?
inactive

For "O=C1C[C@@H]2OCC=C3CN4CC[C@]56c7ccccc7N1[C@H]5[C@H]2[C@H]3C[C@H]46" , which call appears in the assay record?
inactive

For "[Cl-].[Cl-].[Sn+2]" , which call appears in the assay record?
inactive

For "Nc1cc(Cl)ccc1Cl" , which call appears in the assay record?
inactive

For "CCN1CCC2(CC1)COc1cc3c(cc12)N(C(=O)c1ccc(-c2ccc(-c4nnc(C)o4)cc2C)cc1)CC3" , which call appears in the assay record?
active

For COC(=O)C(C)N(C(=O)c1ccco1)c1c(C)cccc1C (stereo unspecified) , which call appears in the assay record?
inactive

For CCNc1nc(NC(C)C(C)C)nc(SC)n1 (stereo unspecified) , which call appears in the assay record?
inactive

For "CCCCc1ccccc1" , which call appears in the assay record?
inactive

For "C=CCOC(=O)c1ccccc1N" , which call appears in the assay record?
inactive

---

Assay text: A CellTox Green Cytotoxicity Assay to monitor cytotoxicity in HEK293 cells - 16 hour (AID 1224888); note: nearly all actives have a fitted effect of over 35% in size
Assay conditions: CellTox Green fluorescence; series mostly up to 76.8 µM
Results filed as inconclusive are left out. The source made the active and inactive calls. Calls follow the shape of the dose curve; as a rule, active = well fitted activation curve with a large enough effect in the repeat runs; inconclusive = weak or mixed curves; inactive = flat fitted curve, though single readings scatter.
Pick one: t (active), f (inactive)

For "CCCCN(CCCC)C(=S)[S-].CCCCN(CCCC)C(=S)[S-].[Ni+2]" , which call appears in the assay record?
f

---

Assay text: qHTS assay for small molecule agonists of the antioxidant response element (ARE) signaling pathway - cell viability counter screen (AID 743203); note: nearly all actives have a fitted effect of over 55% in size
Assay conditions: ARE-bla HepG2 viability, CellTiter-Glo luminescence, 16 h; series mostly up to 73.3 µM
Results filed as inconclusive are left out. Calls of active or inactive are those of the source. Calls come from the whole dose curve.
Pick one: T = active, F = inactive

For "CNC(=O)/C=C(\C)OP(=O)(OC)OC" , which call appears in the assay record?
F

---

Experimental system: Acetylcholinesterase (Homo sapiens) (UniProt P22303)
Sequence (P22303 whole entry, looked up): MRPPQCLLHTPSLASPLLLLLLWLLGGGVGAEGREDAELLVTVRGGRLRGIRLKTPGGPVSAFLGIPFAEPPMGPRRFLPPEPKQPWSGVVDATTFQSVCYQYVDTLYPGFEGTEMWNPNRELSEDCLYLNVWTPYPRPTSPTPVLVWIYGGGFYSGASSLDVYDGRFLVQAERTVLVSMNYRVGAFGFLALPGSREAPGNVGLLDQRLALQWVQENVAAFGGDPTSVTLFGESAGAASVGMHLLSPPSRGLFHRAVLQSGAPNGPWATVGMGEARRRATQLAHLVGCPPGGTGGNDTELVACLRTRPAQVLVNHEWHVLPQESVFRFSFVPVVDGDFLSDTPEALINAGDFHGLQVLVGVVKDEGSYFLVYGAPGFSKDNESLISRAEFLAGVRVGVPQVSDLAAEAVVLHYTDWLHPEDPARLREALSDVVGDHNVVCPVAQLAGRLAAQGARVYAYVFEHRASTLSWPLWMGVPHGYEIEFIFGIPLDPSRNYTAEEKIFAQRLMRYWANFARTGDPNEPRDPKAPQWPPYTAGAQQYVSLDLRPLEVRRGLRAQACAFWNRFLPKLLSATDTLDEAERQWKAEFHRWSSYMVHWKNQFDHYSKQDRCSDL
Assay text: Acetylcholinesterase (AChE) small molecule antagonists: enzyme-based qHTS assay (AID 1347397); note: nearly all actives have a fitted effect of over 55% in size
Assay conditions: AChE enzyme activity inhibition; series mostly up to 115 µM
The source made the active and inactive calls. The call rests on the fitted dose curve.
Pick one: True (active), False (inactive)

Answered examples (5):
- O=c1[nH]c(Cl)c(Cl)cc1Cl: False
- NC1CCC(CC2CCC(N)CC2)CC1 (centres undefined): False
- CNC(=O)CSP(=O)(OC)OC: False
- c1cc[n+]2c(c1)-c1cccc[n+]1CC2: False
- CC(C)Br: False

For "C#CCO" , which call appears in the assay record?
False

For CC(C)C(Nc1ccc(C(F)(F)F)cc1Cl)C(=O)OC(C#N)c1cccc(Oc2ccccc2)c1 (centres undefined) , which call appears in the assay record?
False

For "Cc1cnc2c(C(=O)O)c(Cl)ccc2c1" , which call appears in the assay record?
False

For "CN(C)c1ccc(N)cc1" , which call appears in the assay record?
True

For "CSC1=N[C@@](C)(c2ccccc2)C(=O)N1Nc1ccccc1" , which call appears in the assay record?
False

For "CN(C)CCc1c[nH]c2ccccc12" , which call appears in the assay record?
False

For "N#CCCl" , which call appears in the assay record?
False

For CC(O)C(=O)[O][Hg][c]1ccccc1 (centres undefined) , which call appears in the assay record?
False

For CCC(C)Nc1c([N+](=O)[O-])cc(C(C)(C)C)cc1[N+](=O)[O-] (centres undefined) , which call appears in the assay record?
False

---

Assay text: Caspase-3/7 induction in HepG2 cells by small molecules, qHTS cell viability counter screen (AID 1346981); note: nearly all actives have a fitted effect of over 30% in size
Assay conditions: CellTiter-Fluor fluorescence, 17 h; series mostly up to 92.4 µM
Inconclusive results are not listed. The source made the active and inactive calls. Calls come from the whole dose curve; as a rule, active = well fitted cell-killing curve with a large enough effect in the repeat runs; inconclusive = weak or mixed curves, or effect the other way; inactive = flat fitted curve, though single readings scatter.
Pick one: YES for active, NO for inactive

- CC1(C)[C@H](/C=C2\CCSC2=O)[C@@H]1C(=O)OCc1coc(Cc2ccccc2)c1: NO
- CC(=O)[O-].CC(=O)[O-].O.O.O.[Pb+2]: NO

For CC(=O)C(Cl)C(=O)N(C)C (stereo not drawn) , which call appears in the assay record?
NO

For CC1CN1 (stereo not drawn) , which call appears in the assay record?
NO

For "O=c1[nH]c2cc(Cl)ccc2n1C1CCNCC1" , which call appears in the assay record?
NO

For "Cc1cc2c3c(c1)C(c1ccccc1)=N[C@@H](NC(=O)c1ccncc1)C(=O)N3CC2" , which call appears in the assay record?
NO

For "CSC(C)(C)/C=N/O" , which call appears in the assay record?
NO

For CCC(OC(C)=O)C(CC(C)NC)(c1ccccc1)c1ccccc1 (stereo not drawn) , which call appears in the assay record?
YES

---

Assay text: qHTS assay to identify small molecule agonists of the sonic hedgehog signaling (Shh) pathway - cell viability counter screen (AID 1259366); note: nearly all actives have a fitted effect of over 50% in size
Assay conditions: NIH/3T3 Gli1-Luc viability, CellTiter-Fluor, 24 h; series mostly up to 92.4 µM
Inconclusive results are not listed. Activity calls are given as the source filed them. Calls follow the shape of the dose curve; as a rule, active = well fitted cell-killing curve with a large enough effect in the repeat runs; inconclusive = weak or mixed curves, or effect the other way; inactive = flat fitted curve, though single readings scatter.
Pick one: active, inactive

* O=C(Cl)c1ccccc1F | inactive
* CSSC | inactive
* N#CCCl | inactive
* CN1C(=O)[C@@H](NC(=O)c2cc3ccccc3[nH]2)N=C(c2ccccc2)c2ccccc21 | inactive

Here is another molecule to look at.
For CC(Cc1ccccc1)N(C)Cc1ccco1 (centres undefined) , which call appears in the assay record?
inactive
